tgt: Dual specificity tyrosine-phosphorylation-regulated kinase 1A (Homo sapiens, UniProt Q13627)
measurement_type: IC50 (nM)

# count of solved cases: 8
CN1CCC(Oc2cc3cc(-c4cnc(C#CC5CCOCC5)s4)ccc3cn2)CC1 [US20250066318, Compound I.100] : 550
O=C(O)C1CC(Nc2cc3cc(-c4cncs4)ccc3cn2)C1 (stereo not given) [US20250066318, Compound I.74] : 55
CC(C)CN1CCC(C#Cc2ncc(-c3ccc4cnc(Cl)cc4c3)s2)CC1 [US20250066318, Compound I.104] : 55
O=C(O)[C@H]1C[C@@H](Nc2c(-c3cncs3)ccc3cnccc23)C1 [US20250066318, Compound I.68] : 550
Cn1cc(-c2ccc3cnc(C#CC4CCOCC4)cc3c2)cn1 [US20250066318, Compound I.108] : 55
O=C(O)[C@H]1C[C@@H](Nc2ncc(-c3ccc4cnccc4c3)s2)C1 [US20250066318, Compound I.71] : 55
CN1CCC(c2cn3ncc(-c4ccc(C#N)cc4)c3c(=O)n2C)CC1 [US20250066318, Compound II.45] : 625
N#Cc1cccc(Oc2cncc3ccc(-c4cnc5ccccn45)cc23)c1 [US20250066318, Compound I.6] : 550

[I] Cc1ncc2ccc(-c3cncs3)cc2c1OC1CN(C)C1 [US20250066318, Compound I.76]
[II] Cc1ncc2ccc(-c3cnn(C)c3)cc2c1OC1CNC1 [US20250066318, Compound I.77]
[in] Could you kindly indicate whether I or II has the higher IC50 value? Identify your selection by its label.
[out] I
(I: 550 nM, II: 55 nM)

---

pIC50: −log10 of the molar value.
Here's a batch of molecules along with measured pIC50 for Dual specificity tyrosine-phosphorylation-regulated kinase 1A (Homo sapiens).
measurement_type: pIC50

C(#CC1CCOCC1)c1ncc(-c2ccc3cnc(OC4CCNCC4)cc3c2)s1 [US20250066318, Compound I.98] : 6.26

[I] Cn1cc(-c2ccc3cnc(C#CC4CCNCC4)cc3c2)cn1 [US20250066318, Compound I.106]
[II] N#Cc1cncc2ccc(-c3cnc(C#CC4CCOCC4)s3)cc12 [US20250066318, Compound I.94]
[in] Could you kindly indicate whether I or II has the higher pIC50 value? Identify your selection by its label.
[out] I

---

pIC50: −log10 of the molar value.
Here's a batch of compounds along with measured pIC50 for UniProt Q13627.
measurement_type: pIC50

[I] CC(=O)N1CCN(Cc2cncc3ccc(-c4cnn5cc(C(F)(F)F)ccc45)cc23)CC1
[II] O=C(O)C1CCN(Cc2cncc3ccc(-c4cnn5cc(C(F)(F)F)ccc45)cc23)CC1
[in] Could you kindly indicate whether I or II has the higher pIC50 value? Identify your selection by its label.
[out] I
(I: 7.26, II: 6.26)

---

tgt: UniProtKB Q13627
test_details: DYRK1A Inhibition Assay
measurement_type: IC50

# count of solved cases: 3
CC(=O)N1CCN(Cc2cc3cc(-c4cnc(C#CC5CCOCC5)s4)ccc3cn2)CC1 : > 1 µM
Cn1c(C2CCNCC2)cn2ncc(-c3ccc(C#N)cc3)c2c1=O : 0.625 µM
Cc1ncc2ccc(-c3cnn(C)c3)cc2c1O[C@H]1C[C@H](O)C1 : < 0.01 µM

[in] IC50 lookup needed for O=C(O)C1CN(c2cn3ncc(-c4ccc5cnccc5c4)c3cn2)C1 , thanks.
[out] < 0.01 µM

[in] IC50 lookup needed for Cc1ncc2ccc(-c3cncs3)cc2c1O[C@H]1C[C@H](O)C1 , thanks.
[out] < 0.01 µM

[in] IC50 lookup needed for Cn1cc(C#Cc2ncc(-c3ccc4cnccc4c3)s2)ccc1=O , thanks.
[out] < 0.01 µM

[in] IC50 lookup needed for Cc1ncc2ccc(-c3cnn(C)c3)cc2c1OC1CN(C)C1 , thanks.
[out] 0.055 µM
